Biological target: UniProt:Q08345
Test: Evaluation of DDR1 kinase inhibition in DDR1-expressing U2OS cells (type I collagen stimulation, PathHunter detection)
Type: cell-based
Parameters: host or cells: U2OS
Conditions: type I collagen 50 µg/mL stimulation, duplicate, read-out: DDR-1 IC50
Procedure: The solution was further diluted in an E-MEM medium (Fujifilm Wako Pure Chemicals, 051-07615) containing 10% fetal bovine serum (FBS, Gibco, 10270106) to 60000, 6000, 600, 60, 6, and 0.6 nM to prepare test substance solutions. 2. […] After the incubation, a luminescence intensity was measured by Envision (Perkin-Elmer). […]
Sequence (Q08345 19-913): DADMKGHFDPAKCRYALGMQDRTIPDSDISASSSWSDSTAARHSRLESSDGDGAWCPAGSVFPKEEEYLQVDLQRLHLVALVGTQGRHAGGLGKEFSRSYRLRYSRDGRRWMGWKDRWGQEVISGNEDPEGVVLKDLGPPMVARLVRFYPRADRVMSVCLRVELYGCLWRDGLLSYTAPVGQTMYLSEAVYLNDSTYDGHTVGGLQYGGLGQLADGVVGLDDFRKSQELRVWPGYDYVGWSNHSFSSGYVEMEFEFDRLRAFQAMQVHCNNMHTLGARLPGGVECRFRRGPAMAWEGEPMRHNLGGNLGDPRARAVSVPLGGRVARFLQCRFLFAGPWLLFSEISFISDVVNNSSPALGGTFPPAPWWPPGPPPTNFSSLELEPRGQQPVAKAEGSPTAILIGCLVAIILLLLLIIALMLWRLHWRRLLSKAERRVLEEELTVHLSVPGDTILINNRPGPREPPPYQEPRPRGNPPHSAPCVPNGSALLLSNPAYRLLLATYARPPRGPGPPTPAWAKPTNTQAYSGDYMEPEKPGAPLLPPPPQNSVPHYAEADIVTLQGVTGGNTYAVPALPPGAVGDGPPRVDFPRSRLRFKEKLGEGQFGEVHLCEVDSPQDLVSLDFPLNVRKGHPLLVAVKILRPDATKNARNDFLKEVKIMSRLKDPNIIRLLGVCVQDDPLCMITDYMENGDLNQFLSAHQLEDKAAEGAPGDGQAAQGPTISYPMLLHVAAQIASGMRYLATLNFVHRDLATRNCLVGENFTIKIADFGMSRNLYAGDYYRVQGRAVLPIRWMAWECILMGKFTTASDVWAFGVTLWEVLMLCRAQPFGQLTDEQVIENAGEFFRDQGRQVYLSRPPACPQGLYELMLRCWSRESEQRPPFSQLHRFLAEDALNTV
Structures can show the parent of a compound that is named as a salt.
IC50: recorded values
Return type: number; implicit unit µM.

Some solved entries appear below for comparison.
MOLECULE	READOUT UNITS	MEASURED
COC[C@@H]1CCCN1C(=O)Cn1nc(C2CN(C(=O)c3ccnc(N)c3)C2)c2ccccc21	µM	0.095
CC(C)(C)NC(=O)Cn1nc(C2CN(C(=O)c3ccnc(N)c3)C2)c2c(F)cc(F)cc21	µM	0.46
CN(CC(F)(F)F)C(=O)Cn1nc(C2CN(C(=O)c3ccnc(N)n3)C2)c2cc(Cl)ccc21	µM	0.055
O=C(c1ccnc(NC2CCC(F)(F)CC2)c1)N1CC(c2nn(CC(=O)N3CCC[C@H]3C(F)(F)F)c3cc(F)cc(F)c23)C1 [Compound E-75, hydrochloride]	µM	0.033
CN(CC(F)(F)F)C(=O)Cn1nc(C2CN(C(=O)c3cc(N)ncc3F)C2)c2c(F)cccc21	µM	0.17
Nc1cc(C(=O)N2CC(c3nn(CC(=O)N4CCC[C@H]4C(F)(F)F)c4cc(F)cc(F)c34)C2)cnn1	µM	0.72

Query block: # query: IC50 of entry Nc1cc(C(=O)N2CC(c3nn(CC(=O)NC4CCCC4(F)F)c4ccccc34)C2)ccn1 (centres unmarked)
Result block: 0.45

Query block: # query: IC50 of entry Nc1cc(C(=O)N2CC(c3nn(Cc4cn(CC5CC5)nn4)c4cccc(F)c34)C2)ccn1 [Compound E-37, hydrochloride]
Result block: 2.6

Query block: # query: IC50 of entry `CN(CC(F)F)C(=O)Cn1nc(C2CN(C(=O)c3cc(N)ncc3F)C2)c2ccccc21`
Result block: 0.038

Query block: # query: IC50 of entry `CN(C(=O)Cn1nc(C2CN(C(=O)c3cc(N)ncc3F)C2)c2ccccc21)C1CCOCC1`
Result block: 0.18

Query block: # query: IC50 of entry `O=C(c1ccnc(NC2CC2)c1)N1CC(c2nn(CC(=O)N3CCC[C@H]3C(F)(F)F)c3cccnc23)C1`
Result block: 0.17

Query block: # query: IC50 of entry `O=C(Cn1nc(C2CN(C(=O)c3cc(NC4CC4)ncn3)C2)c2c(F)cc(F)cc21)NCC(F)(F)F`
Result block: 0.69

---

biological target: DDR1 kinase (Homo sapiens); experiment: Evaluation of DDR1 kinase inhibition (LANCE Ultra TR-FRET kinase assay); assay type: biochemical; parameters: purchased Carna Biosciences 08-113; conditions: DDR1 protein 0.5 nM, LANCE Ultra ULight-poly GAT substrate, 2 hours at room temperature, duplicate; read-out: DDR-1 IC50
Sequence (Q08345 19-876 isoform Q08345-2 limits assumed): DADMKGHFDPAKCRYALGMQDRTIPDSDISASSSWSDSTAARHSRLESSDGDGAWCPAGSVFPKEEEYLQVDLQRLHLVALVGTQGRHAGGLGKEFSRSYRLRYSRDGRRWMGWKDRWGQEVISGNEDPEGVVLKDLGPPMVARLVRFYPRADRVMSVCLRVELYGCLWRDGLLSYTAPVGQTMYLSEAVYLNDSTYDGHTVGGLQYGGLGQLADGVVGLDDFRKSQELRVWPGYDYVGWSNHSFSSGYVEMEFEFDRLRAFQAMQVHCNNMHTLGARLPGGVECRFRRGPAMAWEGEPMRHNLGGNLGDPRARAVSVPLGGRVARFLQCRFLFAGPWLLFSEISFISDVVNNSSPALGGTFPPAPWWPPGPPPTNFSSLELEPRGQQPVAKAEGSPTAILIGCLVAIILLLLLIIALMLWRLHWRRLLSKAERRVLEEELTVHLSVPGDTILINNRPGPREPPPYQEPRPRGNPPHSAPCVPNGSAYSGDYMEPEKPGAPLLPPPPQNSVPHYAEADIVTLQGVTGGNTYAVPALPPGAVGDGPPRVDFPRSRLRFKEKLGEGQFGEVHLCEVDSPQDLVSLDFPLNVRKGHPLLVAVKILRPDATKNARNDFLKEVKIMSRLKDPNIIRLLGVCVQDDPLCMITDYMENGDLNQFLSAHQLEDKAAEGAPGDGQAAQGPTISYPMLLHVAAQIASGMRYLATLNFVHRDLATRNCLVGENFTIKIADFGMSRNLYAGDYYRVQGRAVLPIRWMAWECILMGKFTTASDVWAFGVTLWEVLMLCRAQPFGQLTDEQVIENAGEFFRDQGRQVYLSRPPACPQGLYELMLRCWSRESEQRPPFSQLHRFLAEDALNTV
pIC50: recorded values
Lab note — pIC50 values are minus log10 of concentrations in M.

COMPOUND	pIC50
Nc1cc(C(=O)N2CC(c3nn(CC(=O)N4CCC[C@H]4C(F)(F)F)c4c3CC(F)(F)CC4)C2)c(F)cn1 [Compound E-25]	8.05

Query block: # query: pIC50 of entry Nc1ncc(C(=O)N2CC(c3nn(CC(=O)N4CCC[C@H]4C(F)(F)F)c4cc(F)cc(F)c34)C2)o1 [Compound E-105]
Result block: 7.10

Query block: # query: pIC50 of entry CC(C)(C)NC(=O)Cn1nc(C2CN(C(=O)c3ccnc(N)c3)C2)c2ccccc21 [Compound E-198]
Result block: 7.51

Query block: # query: pIC50 of entry CC1(C)CCCN1C(=O)Cn1nc(C2CN(C(=O)c3ccnc(N)c3)C2)c2ccccc21 [Compound E-221]
Result block: 8.36

Query block: # query: pIC50 of entry Nc1cc(C(=O)N2CCC(c3nn(Cc4ccc(C(F)(F)F)cn4)c4cccc(F)c34)CC2)ccn1 [Compound E-9]
Result block: 7.85

Numbers sourced from patent EP4624465A1.
